- Test system: HCT-116 colon
- method: NCI-60 one-dose screen, 48 h
- assay-context: 10 µM unless noted
Compounds without any hit were thinned out: in the full panel of roughly 83,000, 20% have a hit. Calls of active or inactive are those of the source. How the source made its calls: active means growth percent below 10; inactive means the rest.
Possible outcomes: 1 = active, -1 = inactive

# molecule, class-name
measured = [
    ("O=C(N/N=C\\c1ccc(Cl)cc1Cl)c1ccncc1", -1),
    ("O=C(CCl)Oc1ccc([N+](=O)[O-])cc1", -1),
    ("c1ccc2c(NCCCN3CCN(CCCNc4c5ccccc5nc5ccccc45)CC3)c3ccccc3nc2c1", 1),
    ("CN1CCCN(C(c2ccccc2)c2ccc(Cl)cc2)CC1 (stereo unspecified)", -1),
    ("NC(=O)c1cc2c3ccccc3ccn2c1-c1ccccc1", 1),
    ("CCOC(=O)c1ccc(Nc2sc(C(=O)c3ccc(Br)cc3)c(N)c2C#N)cc1", -1),
]

###

- System: A549/ATCC NSCLC
- method: NCI-60 one-dose screen, 48 h
- assay-context: 10 µM unless noted
- Method: Growth inhibition of the A549/ATCC human Non-Small Cell Lung tumor cell line is measured as a screen for anti-cancer activity. Cells are grown in 96 well plates and exposed to the test compound for 48 hours. Compounds are tested at a single concentration, which is 10^-5 M for most compounds. The reported endpoint is percent growth (GI% or GIPRCNT), where numbers from 0 - 100% represent growth inhibition, and numbers from -100% - 0 represent cell death. […]
Compounds without any hit were thinned out: in the full panel of roughly 83,000, 20% have a hit. Active and inactive are the calls of the source. How the source made its calls: active means growth percent below 10; inactive means the rest.
Possible outcomes: yes (1) for active, no (0) for inactive

# compound, class-name
records = [
    ("CN(C)c1ccc2c(N(C)C)cc(N(C)C)nc2c1", "no (0)"),
    ("Cc1cc(CC(=O)NCCO)n(CCO)c(=O)c1", "no (0)"),
    ("Oc1cccc(CNC2CCCCC2)c1", "no (0)"),
    ("COC1OC(C(O)C(O)CO)C(O)C(O)C1O (stereo not given)", "no (0)"),
    ("COc1cccc(C(=O)O)c1OC", "no (0)"),
    ("CCCCCCCCCc1ccc(OC(C)=O)cc1", "no (0)"),
    ("CC(=O)NCNC(C)=O", "no (0)"),
    ("C/C=C/C1OCC(CC)C(CCC)O1 (stereo not given)", "no (0)"),
    ("CC(C)OCC(CCl)OC(=O)Nc1ccccc1 (stereo not given)", "no (0)"),
    ("COC1C(=O)CCC2(CO2)C1(O)C1(C)OC1CCC(C)C (stereo not given)", "no (0)"),
    ("NNc1ncccn1", "no (0)"),
    ("S=C=Nc1ccc2ccccc2c1", "no (0)"),
    ("Cc1cc2nc(C)c(C)nc2cc1C", "no (0)"),
    ("BrCc1cccc(C[P+](c2ccccc2)(c2ccccc2)c2ccccc2)c1", "no (0)"),
    ("NC(=S)N/N=C/c1ccc(OC(=O)COc2ccccc2)cn1", "no (0)"),
    ("O=C(Oc1ccccc1Cl)c1ccc(Cl)cc1Cl", "no (0)"),
    ("COc1nc(Nc2cccc(C(F)(F)F)c2)nc(OC)n1", "no (0)"),
    ("COC1OC(C(COC(C)=O)OC(C)=O)C(OC(C)=O)C(OC(C)=O)C1OC(C)=O (stereo not given)", "no (0)"),
    ("CC(=O)Oc1c(Cl)cccc1-c1ccccc1", "no (0)"),
    ("Ic1cccs1", "no (0)"),
    ("C=C(c1ccc(N(C)C)cc1)c1ccc(N(C)C)cc1", "no (0)"),
    ("COc1ccc(/C=C\\C(=O)/C=C/c2ccc(OC)cc2)cc1", "no (0)"),
    ("NCC(O)C(O)C(O)C(O)CO (stereo not given)", "no (0)"),
    ("O=C(NC1CCCCC1)c1ccc(Cl)cc1", "no (0)"),
    ("Cc1ccc(N)c(S(=O)(=O)O)c1", "no (0)"),
    ("CCOC(=O)c1ccc(NC(C)=O)o1", "no (0)"),
    ("CN1CCN(C(=S)S)CC1", "no (0)"),
    ("CSc1nsc(N)n1", "no (0)"),
    ("O=C(Nc1ccccc1)c1ccco1", "no (0)"),
    ("COc1nc2ccccc2s1", "no (0)"),
    ("NNc1ncnc2nc[nH]c12", "no (0)"),
    ("Cc1cc(C)cc(OCC(=O)O)c1", "no (0)"),
    ("COC1OC(CO)C(OC)C(O)C1O (stereo not given)", "no (0)"),
    ("c1ccc2[nH]c(Cc3nc4ccccc4[nH]3)nc2c1", "no (0)"),
    ("CC(C)C(=O)OCCOc1ccc(C(C)(C)C)cc1", "no (0)"),
    ("CC(=O)N(C)N=Nc1ccc(C)cc1", "no (0)"),
    ("C[n+]1c(/C=C\\C=C\\N2CCCCC2)sc2ccccc21", "yes (1)"),
    ("Nc1ccccc1SC1CC(=O)N(c2ccc(Cl)c(Cl)c2)C1=O (stereo not given)", "no (0)"),
    ("O=C(CCl)Nc1ccccc1SCc1cc(Cl)cc2c1OCOC2", "no (0)"),
    ("O=C(c1cccc(C(=O)c2ccc3c4c(cccc24)C(=O)N(c2ccccc2)C3=O)c1)c1ccc2c3c(cccc13)C(=O)N(c1ccccc1)C2=O", "no (0)"),
    ("COc1cc2c(c(OC)c1OC)-c1ccc(SC)c(=O)cc1[C@@H](NC1OC(CO)C(O)C(O)C1O)CC2 (stereo not given in full)", "no (0)"),
    ("CCN(C(C)=O)c1ccc([N+](=O)[O-])cc1", "no (0)"),
    ("C/C(O)=C(/C=N\\C(=S)Nc1ccc(S(=O)(=O)Nc2nccs2)cc1)C(=O)Nc1ccccc1C", "no (0)"),
    ("CC12CCC3c4ccc(O)cc4CCC3C1CCC2=O (stereo not given)", "no (0)"),
    ("CCC(=O)Oc1c(C)cc(O)c2ccccc12", "no (0)"),
    ("Nc1c(O)c(S(=O)(=O)O)c(O)c2c1C(=O)c1ccccc1C2=O", "no (0)"),
    ("CCOC(=O)C(C#N)=C1CCN(C)CC1", "no (0)"),
    ("CCC(/C=C\\C(C)=O)CC", "no (0)"),
    ("O=C1Nc2ccccc2/C1=C\\c1ccccc1O", "no (0)"),
    ("NC(CSSCC(N)C(=O)O)C(=O)O (stereo not given)", "no (0)"),
    ("NC(=O)OCCO", "no (0)"),
    ("CC(C)Sc1ncnc2nc[nH]c12", "no (0)"),
    ("C1CCc2onc(-c3noc4c3CCCCC4)c2CC1", "no (0)"),
    ("OCC1CCC(O)C(CO)N1 (stereo not given)", "no (0)"),
    ("Cc1ccc(S(=O)(=O)Oc2ccc3sc4c(CO)ccc(NCCN(C)C)c4c(=O)c3c2)cc1", "yes (1)"),
]

###

- Tested on: SF-295 CNS
- method: NCI-60 one-dose screen, 48 h
- assay-context: 10 µM unless noted
The panel holds about 83,000 compounds, 20% with a hit somewhere; the sample as a whole holds those more often. Activity calls are given as the source filed them. The calls were made as follows: active = growth percent below 10; inactive = the rest.
Possible outcomes: yes (1) (active), no (0) (inactive)

# molecule, class-name
data = [
    ("N#C/C(=C\\NC(=S)N=Nc1c(O)[nH]c2ccccc12)c1nc2ccccc2s1", "no (0)"),
    ("Nc1nc(Cl)cc(Cl)n1", "no (0)"),
    ("CCOC(=O)/C(C#N)=C\\c1c[nH]c2ccccc12", "no (0)"),
    ("CCOC(=O)Nc1nccs1", "no (0)"),
    ("CC(=O)CSc1ncnc2nc[nH]c12", "no (0)"),
    ("O=C1C=Cc2ccccc2/C1=C/c1[nH]c(=O)[nH]c1O", "no (0)"),
    ("COC(=O)C1(CC(C)=O)NC(=S)NC(=O)C1C#N (stereo not drawn)", "no (0)"),
    ("Cc1ccnc(Nc2nc3ccccc3[nH]2)n1", "no (0)"),
    ("CNc1ccccc1C(=O)N/N=C/C=C/c1ccccc1", "yes (1)"),
    ("Cc1ccc(S(N)(=O)=O)cc1Cl", "no (0)"),
    ("CCCCCCCCCCCCCC/C=C\\C(CC(=O)O)C(=O)O (stereo not drawn)", "no (0)"),
    ("Clc1ccc(-c2noc(/C=C\\c3ccccc3)n2)cc1", "no (0)"),
    ("CCOC(=O)C(COS(C)(=O)=O)(COS(C)(=O)=O)C(=O)OCC", "no (0)"),
]

All values here come from PubChem BioAssay (NCI).
